Recorded kon, one value per entry.
Molecular target: T1, Polyhistidine-tagged recombinant human UCH-L1 expressed from E. coli (human, UniProt P09936 1-223, limits assumed)
T1 construct: also called UCH-L1-His; not shown: polyhistidine tag
T1 sequence (P09936 whole entry): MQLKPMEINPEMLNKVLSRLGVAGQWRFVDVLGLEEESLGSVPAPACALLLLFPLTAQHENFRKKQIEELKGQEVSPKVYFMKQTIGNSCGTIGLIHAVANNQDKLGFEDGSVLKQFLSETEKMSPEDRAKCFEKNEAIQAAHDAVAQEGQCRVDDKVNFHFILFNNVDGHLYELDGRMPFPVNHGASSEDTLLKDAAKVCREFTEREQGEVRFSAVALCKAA
Assay: BLI (Octet QKe); His-tagged UCH-L1 on anti-Penta-HIS sensor, antibody in solution
A complete answer gives the number followed by the unit.

Please review the entries below; each comes with its answer.
>>> result("UCH-L1-1 (antibody, V domains shown, also called mouse anti-UCH-L1 antibody UCH-L1-1) VH: QVQLQQPGSELVRPGASVKLSCKASGYTFTSYWMHWVKQRPGQGLEWIGNIYPGSGSTNYDEKFKSKATLTVDTSSSTAYMQLSSLTSEDSAVYYCTREDYWGQGTTLTVSS VL: DVLMTQTPLSLPVSLGDQASISCRSSQNIVHSNGNTYLEWYLQKPGQSPKLLIYKVSNRFSGVPDRFSGSGSGTDFTLKISRVEAEDLGVYYCFQGSHVPFTFGSGTKLEIK")
"58800 M⁻¹ s⁻¹"
>>> result("UCH-L1-2 (antibody, V domains shown, also called mouse anti-UCH-L1 antibody UCH-L1-2) VH: EVMLVESGGGLVKPGGSLKLSCAASGFIFSSHAMSWIRQIPEKRLEWVATISSGGSNTYYPDSVKGRFTISRDNAKNILYLQMSSLRSEDTAIYYCTRHGEVRRGYYFDYWGQGTTLTVSS VL: DIQMTQTPSSLSASLGDRVTISCSASQGITNYLNWYQQKPDGTVKLLIYYTSSLHSGVPSRFSGSGSGTDYSLTISNLEPEDFATYYCQHYSNLPWTFGGGTKLEIK")
"146000 M⁻¹ s⁻¹"
>>> result("UCH-L1-9 (antibody, V domains shown, also called mouse anti-UCH-L1 antibody UCH-L1-9) VH: EVQLQQSGPELVKPGASVKISCKTSGYTFTEYTMHWVKQSHGKSLDWIGGINPNNGRTSYNQKFKGKATLTVDKSSSTAYMELRSLTSEDSTVYYCARRLGRGFYFDYWGQGTTLTVSS VL: DIVLTQSPASLAVSLGQRATISCRASESVDSYGNNFMHWYQQKPGQPPKLLIYLSSNLESGIPARFSGRGSRTDFTLTINPVEADDVATYYCQQSNGDPYTFGGGTKLEMK")
"118000 M⁻¹ s⁻¹"

Summary for this binder, UCH-L1-10 (antibody, V domains shown, also called mouse anti-UCH-L1 antibody UCH-L1-10) VH: EVQLQQSGPDLVKPGTSVKISCKTSGYTFTEYTMHWVKQSHGRSLEWIGGFNPNNGRTSYNQKFKGKATLTVDKSSSTAYMELRSLTSEDSAVYYCSRRLYRGFYFDYWGQGTTLTVSS VL: DIVLTQSPASLAVSLGQRATISCRASESVDSYGNNLMHWYQQKPGQSPKLLIYRASNLESGIPGRFSGRGSRTDFSLTINPVEADDVATYYCQQSNGDPYTFGGGTKLEIK : kon is 107000 M⁻¹ s⁻¹
